IC50 values for the molecules below.
- system_tested: N-type calcium channel (Homo sapiens)
- Sequence (Q00975 whole entry): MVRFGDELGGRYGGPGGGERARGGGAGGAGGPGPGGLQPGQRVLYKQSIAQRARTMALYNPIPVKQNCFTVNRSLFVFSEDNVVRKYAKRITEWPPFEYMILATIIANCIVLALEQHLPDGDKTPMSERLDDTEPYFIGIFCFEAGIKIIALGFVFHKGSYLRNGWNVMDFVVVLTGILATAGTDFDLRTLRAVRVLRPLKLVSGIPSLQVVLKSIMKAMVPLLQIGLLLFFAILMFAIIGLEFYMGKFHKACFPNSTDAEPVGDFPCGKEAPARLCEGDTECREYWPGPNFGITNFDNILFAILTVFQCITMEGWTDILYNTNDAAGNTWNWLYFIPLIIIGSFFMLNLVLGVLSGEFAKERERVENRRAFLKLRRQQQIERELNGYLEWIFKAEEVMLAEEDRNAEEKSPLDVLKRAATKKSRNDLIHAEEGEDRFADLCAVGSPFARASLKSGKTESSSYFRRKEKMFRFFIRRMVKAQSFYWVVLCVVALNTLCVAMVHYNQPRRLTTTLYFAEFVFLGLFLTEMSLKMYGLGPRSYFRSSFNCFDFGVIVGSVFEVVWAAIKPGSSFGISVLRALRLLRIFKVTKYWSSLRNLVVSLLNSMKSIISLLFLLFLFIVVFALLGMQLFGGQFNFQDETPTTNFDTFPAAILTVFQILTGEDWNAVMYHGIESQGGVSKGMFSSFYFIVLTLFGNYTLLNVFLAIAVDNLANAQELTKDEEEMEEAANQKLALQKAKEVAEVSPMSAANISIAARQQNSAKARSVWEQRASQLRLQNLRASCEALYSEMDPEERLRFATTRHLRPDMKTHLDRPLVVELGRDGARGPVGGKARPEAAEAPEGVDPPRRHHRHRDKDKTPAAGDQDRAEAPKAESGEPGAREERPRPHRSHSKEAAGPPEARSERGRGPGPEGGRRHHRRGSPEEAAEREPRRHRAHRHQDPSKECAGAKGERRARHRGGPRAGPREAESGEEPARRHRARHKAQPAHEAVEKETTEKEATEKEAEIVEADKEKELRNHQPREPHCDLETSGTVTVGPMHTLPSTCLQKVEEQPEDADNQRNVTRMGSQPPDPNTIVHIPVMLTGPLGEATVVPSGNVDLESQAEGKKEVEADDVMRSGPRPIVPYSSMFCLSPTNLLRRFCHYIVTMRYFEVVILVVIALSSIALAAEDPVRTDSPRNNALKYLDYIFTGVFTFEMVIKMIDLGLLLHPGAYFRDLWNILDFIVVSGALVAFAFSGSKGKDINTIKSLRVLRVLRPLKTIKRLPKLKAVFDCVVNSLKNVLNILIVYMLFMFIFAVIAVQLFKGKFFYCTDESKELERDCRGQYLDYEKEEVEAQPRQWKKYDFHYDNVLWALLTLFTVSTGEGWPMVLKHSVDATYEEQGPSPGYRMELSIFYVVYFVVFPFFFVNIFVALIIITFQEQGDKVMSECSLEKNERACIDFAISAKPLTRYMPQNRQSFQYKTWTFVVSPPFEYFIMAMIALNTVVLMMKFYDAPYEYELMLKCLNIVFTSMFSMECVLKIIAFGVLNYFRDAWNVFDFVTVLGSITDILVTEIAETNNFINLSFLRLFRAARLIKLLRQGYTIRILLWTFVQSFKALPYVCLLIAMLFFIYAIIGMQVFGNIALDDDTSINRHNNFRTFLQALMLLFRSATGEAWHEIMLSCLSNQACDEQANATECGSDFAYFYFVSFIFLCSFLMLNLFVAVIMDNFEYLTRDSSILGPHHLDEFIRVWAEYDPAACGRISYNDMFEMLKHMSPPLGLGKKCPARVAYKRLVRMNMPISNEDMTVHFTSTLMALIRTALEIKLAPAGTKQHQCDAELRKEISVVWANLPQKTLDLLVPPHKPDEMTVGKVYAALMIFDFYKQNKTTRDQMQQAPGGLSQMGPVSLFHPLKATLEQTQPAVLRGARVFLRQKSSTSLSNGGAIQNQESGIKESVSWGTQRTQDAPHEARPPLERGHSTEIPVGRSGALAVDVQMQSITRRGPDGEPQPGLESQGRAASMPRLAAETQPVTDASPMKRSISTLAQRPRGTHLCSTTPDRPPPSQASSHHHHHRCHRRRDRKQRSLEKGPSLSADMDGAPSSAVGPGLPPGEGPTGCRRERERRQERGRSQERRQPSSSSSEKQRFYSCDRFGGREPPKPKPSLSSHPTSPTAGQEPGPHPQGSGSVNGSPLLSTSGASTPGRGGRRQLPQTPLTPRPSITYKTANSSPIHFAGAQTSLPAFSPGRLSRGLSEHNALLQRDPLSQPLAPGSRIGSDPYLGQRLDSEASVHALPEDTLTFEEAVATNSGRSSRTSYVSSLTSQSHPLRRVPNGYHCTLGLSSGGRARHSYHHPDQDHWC
- Sequence (P54289 25-1103 partner): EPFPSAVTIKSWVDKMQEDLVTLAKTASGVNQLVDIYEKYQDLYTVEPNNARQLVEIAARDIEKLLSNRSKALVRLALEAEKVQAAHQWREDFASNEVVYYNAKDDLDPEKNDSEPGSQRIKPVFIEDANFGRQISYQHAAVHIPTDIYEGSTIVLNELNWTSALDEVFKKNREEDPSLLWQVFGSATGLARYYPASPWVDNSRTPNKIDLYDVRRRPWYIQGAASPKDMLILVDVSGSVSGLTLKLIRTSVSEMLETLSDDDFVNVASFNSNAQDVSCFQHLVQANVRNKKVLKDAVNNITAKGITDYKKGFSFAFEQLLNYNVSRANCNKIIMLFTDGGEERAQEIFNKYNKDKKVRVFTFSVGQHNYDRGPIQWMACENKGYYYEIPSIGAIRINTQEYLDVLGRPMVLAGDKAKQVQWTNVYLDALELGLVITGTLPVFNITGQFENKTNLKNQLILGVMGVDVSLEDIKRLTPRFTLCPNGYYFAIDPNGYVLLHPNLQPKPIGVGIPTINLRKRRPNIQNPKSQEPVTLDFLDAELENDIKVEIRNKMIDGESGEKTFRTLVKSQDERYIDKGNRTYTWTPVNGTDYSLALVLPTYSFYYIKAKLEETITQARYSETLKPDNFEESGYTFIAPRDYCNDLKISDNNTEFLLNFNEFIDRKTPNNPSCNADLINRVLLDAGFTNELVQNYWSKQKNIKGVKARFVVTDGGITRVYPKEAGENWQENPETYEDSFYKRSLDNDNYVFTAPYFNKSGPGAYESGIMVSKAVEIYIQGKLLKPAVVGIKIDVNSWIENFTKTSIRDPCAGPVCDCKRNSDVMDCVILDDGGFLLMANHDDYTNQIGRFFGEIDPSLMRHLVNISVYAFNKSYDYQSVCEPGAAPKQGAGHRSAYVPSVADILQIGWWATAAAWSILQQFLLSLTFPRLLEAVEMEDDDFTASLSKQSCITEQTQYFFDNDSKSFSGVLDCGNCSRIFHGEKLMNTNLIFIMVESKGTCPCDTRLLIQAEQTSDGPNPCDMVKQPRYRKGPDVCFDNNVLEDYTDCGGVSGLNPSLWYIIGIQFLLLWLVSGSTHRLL
- Sequence (P54284 whole entry partner): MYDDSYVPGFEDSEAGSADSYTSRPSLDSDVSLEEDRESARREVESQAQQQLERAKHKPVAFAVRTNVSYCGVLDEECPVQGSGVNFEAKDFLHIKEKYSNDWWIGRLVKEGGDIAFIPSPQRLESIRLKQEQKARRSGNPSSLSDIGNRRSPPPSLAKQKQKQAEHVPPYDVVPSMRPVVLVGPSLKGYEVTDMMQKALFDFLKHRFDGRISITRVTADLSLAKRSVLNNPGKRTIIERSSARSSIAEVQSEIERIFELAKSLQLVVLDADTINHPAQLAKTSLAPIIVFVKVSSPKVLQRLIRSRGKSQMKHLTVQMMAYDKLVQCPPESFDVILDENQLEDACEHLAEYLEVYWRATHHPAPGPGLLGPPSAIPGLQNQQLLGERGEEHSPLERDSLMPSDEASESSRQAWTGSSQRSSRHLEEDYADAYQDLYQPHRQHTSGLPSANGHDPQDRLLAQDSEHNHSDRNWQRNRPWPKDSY
- protocol_details: N-channel FLIPR assay (inhibition of K+-evoked calcium flux in differentiated IMR32 cells)
- Assay type: cell-based
- condition_summary: 80 mM K+ stimulus
Report the value in µM with no unit label.

Below, 10 molecules whose answers are already recorded.
CNc1ccc2nc(-c3cccc(F)c3)cc(N)c2c1 [Example 24]; 2.68
CNc1ccc2nc(-c3cccc(F)c3)cc(N(C)C)c2c1 [Example 28]; 3.81
CN(C)c1cc(-c2ccccc2)nc2ccc(N)cc12 [Example 6]; 6.11
CN(C)c1cc(-c2cccc(F)c2)nc2ccc(NC3CCCC3)cc12 [Example 50]; 5.9
Nc1ccc2nc(-c3cccc(C(F)(F)F)c3)cc(N)c2c1 [Example 5]; 5.83
CN(C)c1cc(-c2cccc(F)c2)nc2ccc(NC3CCC3)cc12 [Example 48]; 7.74
CCCCCc1cc(N)c2cc(N)ccc2n1 [Example 12, 2-Pentyl-quinoline-4,6-diamine]; 1.89
CN(C)c1cc(-c2cccc(F)c2)nc2ccc(NCC3CC3)cc12 [Example 49]; 5.88
CN(C)c1cc(-c2cccc(N3CCOCC3)c2)nc2ccc(N)cc12 [Example 56]; 6.38
CNc1cc(-c2cccc(F)c2)nc2ccc(N)cc12 [Example 39]; 4.53

Switching to the query record.
Given the entry C=CCNc1ccc2nc(-c3cccc(F)c3)cc(N(C)C)c2c1 [Example 51] , report its measured IC50.
3.78

Every entry's value here was drawn from patent US7189714B2.
